Listed next: entries and their corresponding GI50.
# Test system: UACC-257
# assay comment: NCI tumour cell line growth inhibition, 48 h
Activity calls are given as the source filed them. Rule as the data show it: active = GI50 up to about 1.1 µM and inactive = higher.
quantity kind: GI50

{"columns": ["compound", "quantity kind", "measurement"],
 "data": [
  ["CC1(C)CC(=O)C2=C(C1)S/C(=C1/SC3=C(S1)C(=O)CC(C)(C)C3)S2", "GI50", "> 251 µM (inactive)"],
  ["CC(=O)Nc1ccc(S(=O)(=O)/N=C2\\C=CC(=O)c3ccccc32)cc1", "GI50", "6.22 µM (inactive)"],
  ["C/C(CC(=O)Nc1cccc(Cl)c1C)=N\\NC(=O)c1ccncc1", "GI50", "> 100 µM (inactive)"],
  ["O=C(Sc1sc(=S)sc1SC(=O)c1ccccc1)c1ccccc1", "GI50", "> 100 µM (inactive)"],
  ["CC(C)(C)c1cc(C2COC(=O)COCCOCC(=O)OCCOCCO2)cc(C(C)(C)C)c1O (stereo not given)", "GI50", "> 71.6 µM (inactive)"],
  ["COc1ccc2c(=O)c3c([nH]c2c1)OCC3=O", "GI50", "> 100 µM (inactive)"],
  ["O=c1cc(-c2cccnc2)[nH]c2cc3c(cc12)OCO3", "GI50", "> 26.5 µM (inactive)"],
  ["CC(=O)c1ccc(NC(=O)C(=O)C(C(=O)/C=C/c2ccccc2)C2OC(=O)c3ccccc32)cc1 (stereo not given)", "GI50", "> 100 µM (inactive)"],
  ["C1CN1c1nc(N2CC2)nc(N2CC2)n1", "GI50", "10.7 µM (inactive)"],
  ["O=C(/C=C/c1ccc(Cl)c(Cl)c1)CCN1CCN(CCC(=O)/C=C/c2ccc(Cl)c(Cl)c2)CC1", "GI50", "33 µM (inactive)"]
]}

====

# System: MOLT-4
# assay comment: NCI tumour cell line growth inhibition, 48 h
Active and inactive are the calls of the source. Cut-off read from the data, not from the text of the source: active = GI50 up to about 1.1 µM and inactive = higher.
Outcomes: true (1) (active), false (0) (inactive)

{"columns": ["molecule", "qualitative label"],
 "data": [
  ["CCN(CC)CCCC(C)Nc1cc(/C=C/c2ccc(Cl)cc2)nc2cc(N(C)C)ccc12 (stereo unspecified)", "false (0)"],
  ["COc1cc(/C=c2/c3ccccc3n3c2cc(-c2ccccc2)[n+]3C)cc(OC)c1OC", "false (0)"],
  ["COC(=O)C(CBr)CBr", "false (0)"],
  ["O=c1c2cc3c(cc2[nH]c2ncccc12)OCO3", "false (0)"],
  ["Cc1ccc(S(=O)(=O)N(CC(O)COc2ccccc2)c2c(F)c(F)cc(F)c2F)cc1 (stereo unspecified)", "true (1)"],
  ["c1ccc2c(c1)nnn2C1CCCCO1 (stereo unspecified)", "false (0)"],
  ["CC(=O)CNC(=O)OC(C)(C)C", "false (0)"],
  ["Cc1ccc(OC2CC(n3cnc4c(=O)[nH]c(Br)nc43)OC2Oc2ccc(C)cc2)cc1 (stereo unspecified)", "false (0)"],
  ["NC(=O)N1N=C2c3ccccc3OC[C@H]2[C@@H]1c1ccccc1", "false (0)"],
  ["COc1ccc2c(c1)C(=O)c1ccccc1C2", "false (0)"],
  ["CCCCCCCCCCCC(=O)OC[C@@H](C[As](=O)(O)O)OC(=O)CCCCCCCCCCC", "false (0)"]
]}
